molecular target: human α4β2 nicotinic acetylcholine receptor (Homo sapiens, UniProt P17787+P43681); construct: Full-length cDNAs were assembled in mammalian expression vectors for constitutive expression; expressed in transfected cells; host or cells: CHO; test: IWB population patch clamp, agonist mode, α4β2-CHO; format: cell-based; settings: agonist mode, Day 1; read-out: EC50, Day 1
Sequence (P43681 27-627): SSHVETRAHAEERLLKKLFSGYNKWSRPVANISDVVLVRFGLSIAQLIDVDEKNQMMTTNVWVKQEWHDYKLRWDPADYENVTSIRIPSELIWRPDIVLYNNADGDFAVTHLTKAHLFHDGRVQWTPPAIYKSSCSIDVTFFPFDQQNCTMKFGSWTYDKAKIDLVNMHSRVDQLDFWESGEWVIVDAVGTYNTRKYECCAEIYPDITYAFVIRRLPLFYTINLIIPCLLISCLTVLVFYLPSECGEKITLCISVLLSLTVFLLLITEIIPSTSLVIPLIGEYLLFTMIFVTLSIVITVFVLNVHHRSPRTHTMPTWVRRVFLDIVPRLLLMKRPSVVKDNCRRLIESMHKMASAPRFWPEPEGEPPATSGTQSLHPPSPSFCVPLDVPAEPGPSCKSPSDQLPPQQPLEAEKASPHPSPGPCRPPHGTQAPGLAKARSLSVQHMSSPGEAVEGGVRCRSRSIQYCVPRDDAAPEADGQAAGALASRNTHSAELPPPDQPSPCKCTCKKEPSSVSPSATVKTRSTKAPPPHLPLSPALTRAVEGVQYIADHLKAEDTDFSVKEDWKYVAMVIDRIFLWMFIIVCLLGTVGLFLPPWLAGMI
Sequence (P17787 26-502): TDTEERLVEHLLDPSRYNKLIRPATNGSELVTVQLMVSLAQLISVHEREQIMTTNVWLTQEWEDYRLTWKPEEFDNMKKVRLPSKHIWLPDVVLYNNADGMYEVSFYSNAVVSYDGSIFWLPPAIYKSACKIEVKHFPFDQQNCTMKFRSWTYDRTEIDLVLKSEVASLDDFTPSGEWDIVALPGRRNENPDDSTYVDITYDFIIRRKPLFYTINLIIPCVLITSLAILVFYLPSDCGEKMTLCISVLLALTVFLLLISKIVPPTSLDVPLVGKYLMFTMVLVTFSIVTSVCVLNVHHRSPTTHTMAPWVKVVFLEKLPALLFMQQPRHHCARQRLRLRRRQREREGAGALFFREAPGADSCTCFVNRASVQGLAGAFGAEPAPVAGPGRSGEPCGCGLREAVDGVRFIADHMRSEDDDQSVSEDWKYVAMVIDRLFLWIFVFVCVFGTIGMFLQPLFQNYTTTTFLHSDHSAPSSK
experimental-readout: EC50 (nM)
Reply numerically in nM, unit not repeated.

Which EC50 is reported for this molecule? c1cncc(OC[C@@H]2CCN2)c1
197

###

Target: human α4β2 nicotinic acetylcholine receptor (Homo sapiens, UniProt P17787+P43681)
Construct: Full-length cDNAs were assembled in mammalian expression vectors for constitutive expression; expressed in transfected cells; host or cells: CHO
Assay: IWB population patch clamp, agonist mode, α4β2-CHO
Format: cell-based
Settings: EC50, Day 2, agonist mode, Day 2
Experimental: The internal HEPES-buffered solution consisted of 90 mM CsF, 50 mM CsCl, 2 mM MgCl2, 5 mM EGTA, and 10 mM HEPES, pH 7.2 adjusted with CsOH. […] After establishment of a whole-cell configuration (10 min perforation), membrane currents were recorded by on-board patch clamp amplifiers in the IWB. […] Inward current peak amplitudes and charge movement (area-under-the-curve [AUC] during the 5-s interval starting at solution addition, unless otherwise specified) were measured. […]
EC50 by entry:
Number only, in µM; omit the unit.

Item CNCC/C=C/c1cccnc1 with human α4β2 nicotinic acetylcholine receptor (Homo sapiens, UniProt P17787+P43681) - EC50?
3.47

Checklist item: EC50 tested on human α4β2 nicotinic acetylcholine receptor (Homo sapiens, UniProt P17787+P43681), entry O=c1cccc2n1C[C@@H]1CNC[C@H]2C1 , value?
10.3
